Where these numbers come from: patent US11535650

# tested.system: T1, human C5 protein (human, UniProt P01031 19-673; P01031 678-1676)
# T1 construct: Natural C5 is made from one precursor and circulates as two disulfide-linked chains; also called complement component C5; purified human C5
# test.summary: competitive fluorescence polarization vs probe R3076, Exp 2
Positions of bridges follow the written chain, without caps; N, C: chain ends. Non-standard residues stand in square brackets, D forms with d. No end group written: not given here. mXylyl = bridging moiety between residues (mXylyl(i,j)); Trp(7-aza) = N[C@@H](Cc1c[nH]c2ncccc12)C(=O)O; Phg = N[C@H](C(=O)O)c1ccccc1; NMeS = CN[C@@H](CO)C(=O)O; Nva = CCC[C@H](N)C(=O)O
Documented IC50 across a set of binders
# output: bare number, implied unit µM

Ac-[Nva]C[Phg]T[Trp(7-aza)]EY[NMeS]HC[Nva]P-NH2 (linker 2-10 via mXylyl) [R3011] = 0.261
Ac-C[Phg]T[Trp(7-aza)]EY[NMeS]HC[Nva]P[Nva]-NH2 (linker 1-9 via mXylyl) [R3014] = 7.58

Then there is this binder:
input: Reported IC50, binder MCVERFCDVYWE-NH2 (linker 2-7 via mXylyl) [R3043] : ____
output: 4.12
